- Tested on: Enterobacteriaceae
- Procedure Text: SMART 2003 Europe, microdilution
- Format: cell-based
- Protocol Conditions: 1948 isolates
Answer each item with its documented per cent susceptible.
# unit: % | format: bare number

Ask | API: value(readout=per cent susceptible, system=Enterobacteriaceae) for record CO[C@@]1(NC(=O)Cc2cccs2)C(=O)N2C(C(=O)O)=C(COC(N)=O)CS[C@@H]21
Reply | 82

Ask | Also CC(C)(O/N=C(\C(=O)N[C@@H]1C(=O)N2C(C(=O)[O-])=C(C[n+]3ccccc3)CS[C@H]12)c1csc(N)n1)C(=O)O ?
Reply | 92

Ask | Queued: CO/N=C(\C(=O)N[C@@H]1C(=O)N2C(C(=O)[O-])=C(C[N+]3(C)CCCC3)CS[C@H]12)c1csc(N)n1 [cefepime]
Reply | 96

Ask | Let us now turn to NCC[C@H](O)C(=O)N[C@@H]1C[C@H](N)[C@@H](O[C@H]2O[C@H](CN)[C@@H](O)[C@H](O)[C@H]2O)[C@H](O)[C@H]1O[C@H]1O[C@H](CO)[C@@H](O)[C@H](N)[C@H]1O
Reply | 99

Ask | Now try NC[C@H]1O[C@H](O[C@H]2[C@H](O)[C@@H](O[C@H]3O[C@H](CO)[C@@H](O)[C@H](N)[C@H]3O)[C@H](N)C[C@@H]2N)[C@H](N)C[C@@H]1O .
Reply | 93

Ask | Can you handle CO/N=C(\C(=O)N[C@@H]1C(=O)N2C(C(=O)O)=C(CSc3nc(=O)c(=O)[nH]n3C)CS[C@H]12)c1csc(N)n1 next?
Reply | 91

Ask | Query O=C(O)c1cn(C2CC2)c2cc(N3CCNCC3)c(F)cc2c1=O next
Reply | 84

Ask | Please answer likewise for C[C@H]1COc2c(N3CCN(C)CC3)c(F)cc3c(=O)c(C(=O)O)cn1c23
Reply | 86

Ask | How about C[C@@H](O)[C@H]1C(=O)N2C(C(=O)O)=C(S[C@@H]3CN[C@H](C(=O)Nc4cccc(C(=O)O)c4)C3)[C@H](C)[C@H]12 ?
Reply | 99

----------
- System: Streptococcus agalactiae strains P0162 and P0425
- Procedure Text: Microdilution
- Format: cell-based
- Protocol Conditions: strain P0425 (ParC Ser79Phe, GyrA Glu85Lys)
Readout: MIC (µg/mL)
A number alone suffices; assume µg/mL.

Ask | Look up MIC for this compound: NC1CCN(c2c(F)cc3c(=O)c(C(=O)O)cn(C4CC4)c3c2Cl)C1 (centres unmarked)
Reply | 0.75

Ask | // same read-out, input: COc1c(N2C[C@@H]3CCCN[C@@H]3C2)c(F)cc2c(=O)c(C(=O)O)cn(C3CC3)c12
Reply | 2

----------
- Test system: PRSP
- Procedure Text: Broth microdilution
- Assay type: cell-based, Streptococcus pneumoniae
- Protocol Conditions: Streptococcus pneumoniae, PRSP
For each entry below, report its MIC90 value.
Entry rule: numbers only, all in µg/mL.

Ask | GET /values?readout=MIC90&item= CC1(C)S[C@@H]2[C@H](NC(=O)Cc3ccccc3)C(=O)N2[C@H]1C(=O)O
Reply | 4

Ask | Further, for CC1(C)S[C@@H]2[C@H](NC(=O)[C@H](N)c3ccccc3)C(=O)N2[C@H]1C(=O)O ?
Reply | 8
